tested on: Plasmodium falciparum; experiment: Antimalarial activity against asynchronized chloroquine-resistant Plasmodium falciparum FcB1/Columbia assessed as reduction in [3H]-hypoxanthine incorporation pretreated for 24 hrs followed by [3H]-hypoxanthine addition after 24 hrs by microbeta scintillation counting analysis; format: functional
Listed here are compounds together with their documented IC50.
Give the value in µM but do not write µM after it.

Form field: IC50 recorded for "CC(C)C[C@H](NC(=O)[C@@H](O)[C@H](N)Cc1ccccc1)C(=O)O" with Plasmodium falciparum (enter value)
3.3

---
Report IC50 for CC(C)C[C@@H](C(=O)O)N(C(=O)[C@@H](N)Cc1ccccc1)C(C(=O)NCc1ccccc1)c1ccco1 (some centres undefined) tested on Plasmodium falciparum.
16

Record "O=C(CN[C@@H](Cc1c[nH]c2ccccc12)C(=O)O)NC1CCCCC1" : what is its IC50 with Plasmodium falciparum?
37

Notebook entry, Plasmodium falciparum assay: IC50 of "O=C(CN[C@@H](Cc1ccccc1)C(=O)O)NC1CCCCC1" = ?
29

###

tested on: Plasmodium falciparum; assay: Inhibition of recombinant Plasmodium falciparum M1 aminopeptidase assessed as residual activity at 20 uM using Ala-AMC as substrate pretreated for 30 mins followed by substrate addition by fluorescence assay relative to control
Please use Satisfied whenever Activity is not below 60%, and Not satisfied whenever it is.

Recorded results for 3 compounds are shown here.
Does Activity meet or surpass 60% for CC(C)C[C@@H](C(=O)O)N(C(=O)[C@@H](N)Cc1ccccc1)C(C(=O)NCC(=O)O)c1ccccc1 (some centres undefined) ?
Satisfied

Determine whether measured Activity meets or exceeds 60% for O=C(NC1CCCCC1)C(c1cccnc1)N1CCC[C@H]1C(=O)O (some centres undefined)
Satisfied

Confirm if Activity reported for the compound "CC[C@H](C)[C@H](NCC(=O)NC1CCCCC1)C(=O)O" is 60% or above.
Satisfied

---
Does the reported Activity for CC(C)C[C@@H](C(=O)O)N(C(=O)[C@@H](N)Cc1ccccc1)C(C(=O)NC(C)(C)C)c1ccco1 (some centres undefined) fall at or above the 60% mark?
Not satisfied

Activity >= 60% for O=C(NC1CCCCC1)C(N[C@@H](Cc1ccccc1)C(=O)O)c1ccccc1 (some centres undefined) ?
Not satisfied

Quick check, Activity >= 60%? "CC(C)C[C@H](N)C(=O)N(CC(=O)NCc1ccccc1)[C@H](C(=O)O)C(C)C"
Satisfied

Textbook exercise: given the entry "CC(C)C[C@H](NC(=O)[C@@H](O)[C@H](N)Cc1ccccc1)C(=O)O" , state whether its Activity is greater than or equal to 60%.
Not satisfied

###

Activity values for the molecules below.
test system: Plasmodium falciparum; assay: Inhibition of recombinant Plasmodium falciparum M1 aminopeptidase assessed as residual activity at 20 uM using Ala-AMC as substrate pretreated for 30 mins followed by substrate addition by fluorescence assay relative to control
Kindly provide the numeric value in % only, without the unit symbol.

Sample records with Activity:
For the molecule shown here, "CC(C)C[C@@H](C(=O)O)N(CC(=O)NCc1ccccc1)C(=O)[C@@H](N)Cc1ccccc1" , give the reported Activity.
91

Endpoint output: Activity of CC(C)C[C@@H](C(=O)O)N(C(=O)[C@@H](N)Cc1ccccc1)C(C(=O)NC(C)(C)C)c1ccccc1 (some centres not stated) . Value?
69

Bench note: what Activity did "O=C(CN[C@@H](Cc1ccccc1)C(=O)O)NCc1ccccc1" show?
23

# query: Activity of entry CC(C)C[C@H](NC(C(=O)NC1CCCCC1)c1ccccc1)C(=O)O (some centres not stated)
40

Item under review: CC(C)C[C@@H](C(=O)O)N(C(=O)[C@@H](N)Cc1ccccc1)C(C(=O)NC(C)(C)C)c1cccnc1 (some centres not stated) . Reported Activity?
64

Would you kindly share the measured Activity for "CC(C)C[C@H](NCC(=O)NC1CCCCC1)C(=O)O" ?
96

Endpoint output: Activity of "O=C(CN[C@@H](Cc1ccccc1)C(=O)O)NC1CCCCC1" . Value?
48

GET /values?readout=Activity&item= "O=C(CN1CCC[C@H]1C(=O)O)NC1CCCCC1"
98

Continuing:
GET /values?readout=Activity&item= "CC(C)C[C@H](N)C(=O)N(CC(=O)NC(C)(C)C)[C@@H](Cc1ccccc1)C(=O)O"
61

Fill in the blank: the reported Activity of "CC(C)C[C@@H](C(=O)O)N(CC(=O)NC(C)(C)C)C(=O)[C@@H](N)Cc1ccccc1" is ____.
97

Dear colleague, I am looking for the recorded Activity of the following molecule: COc1ccc(C(C(=O)NC(C)(C)C)N(C(=O)[C@@H](N)Cc2ccccc2)[C@@H](CC(C)C)C(=O)O)cc1OC (some centres not stated)
48

Given "O=C(CN[C@@H](Cc1c[nH]c2ccccc12)C(=O)O)NC1CCCCC1" , state its recorded Activity.
29

Just for reference, ChEMBL document CHEMBL4043116 is where these values come from.
